Entry source: patent US20250230173A1

EXPERIMENT: Stability study of selected solid forms, XRPD after 7 days of storage
Type: physicochemical
CONDITION SUMMARY: 7 days, 40° C. / 75% RH
Description: XRPD diffractograms were collected with a Bruker, D2 Phaser or Panalytical Empyrean X-ray diffractometer. Diffractograms can be read by one of skill in the art, for example, to determine if a chemical sample is the substantially the same, different, or represents a mixture of forms. […]

COMPOUND	XRPD (solid form)
Cc1cccnc1-c1ccc(-c2n[nH]c3ncc(-c4ccc5c(c4)CC[C@@H](N4C6COCC4C6)CC5)cc23)nc1 [Fumarate Form I]	Form I
Cc1cccnc1-c1ccc(-c2n[nH]c3ncc(-c4ccc5c(c4)CC[C@@H](N4C6COCC4C6)CC5)cc23)nc1 [2-Napsylate Form I]	Form I
Cc1cccnc1-c1ccc(-c2n[nH]c3ncc(-c4ccc5c(c4)CC[C@@H](N4C6COCC4C6)CC5)cc23)nc1 [Succinate Form I]	Form I

====

EXPERIMENT: Stability study of selected solid forms, HPLC purity after 7 days of storage
Assay type: physicochemical
CONDITION SUMMARY: 7 days, 40° C. / 75% RH
MEASURED PARAMETER: HPLC Purity (A %)
// units = A %; emit number, no label

COMPOUND	OUTPUT UNIT	HPLC Purity (A %)
Cc1cccnc1-c1ccc(-c2n[nH]c3ncc(-c4ccc5c(c4)CC[C@@H](N4C6COCC4C6)CC5)cc23)nc1 [Freebase Form II]	A %	99.36
Cc1cccnc1-c1ccc(-c2n[nH]c3ncc(-c4ccc5c(c4)CC[C@@H](N4C6COCC4C6)CC5)cc23)nc1 [Succinate Form I]	A %	89.76
Cc1cccnc1-c1ccc(-c2n[nH]c3ncc(-c4ccc5c(c4)CC[C@@H](N4C6COCC4C6)CC5)cc23)nc1 [Camsylate Form I]	A %	99.29

q: // returns reported HPLC Purity (A %) for input Cc1cccnc1-c1ccc(-c2n[nH]c3ncc(-c4ccc5c(c4)CC[C@@H](N4C6COCC4C6)CC5)cc23)nc1 [Fumarate Form I]
a: 95.29

q: Could you do the same for Cc1cccnc1-c1ccc(-c2n[nH]c3ncc(-c4ccc5c(c4)CC[C@@H](N4C6COCC4C6)CC5)cc23)nc1 [2-Napsylate Form I] , please?
a: 99.35

====

EXPERIMENT: Stability study of selected solid forms, HPLC purity after 7 days of storage
Type: physicochemical
CONDITION SUMMARY: T0
MEASURED PARAMETER: HPLC Purity (A %)
// units = A %; emit number, no label

q: // returns reported HPLC Purity (A %) for input Cc1cccnc1-c1ccc(-c2n[nH]c3ncc(-c4ccc5c(c4)CC[C@@H](N4C6COCC4C6)CC5)cc23)nc1 [Camsylate Form I]
a: 99.69

q: Could you do the same for Cc1cccnc1-c1ccc(-c2n[nH]c3ncc(-c4ccc5c(c4)CC[C@@H](N4C6COCC4C6)CC5)cc23)nc1 [Freebase Form II] , please?
a: 100.0

q: Could you do the same for Cc1cccnc1-c1ccc(-c2n[nH]c3ncc(-c4ccc5c(c4)CC[C@@H](N4C6COCC4C6)CC5)cc23)nc1 [2-Napsylate Form I] , please?
a: 99.82

q: Could you do the same for Cc1cccnc1-c1ccc(-c2n[nH]c3ncc(-c4ccc5c(c4)CC[C@@H](N4C6COCC4C6)CC5)cc23)nc1 [Fumarate Form I] , please?
a: 97.84

q: Could you do the same for Cc1cccnc1-c1ccc(-c2n[nH]c3ncc(-c4ccc5c(c4)CC[C@@H](N4C6COCC4C6)CC5)cc23)nc1 [Succinate Form I] , please?
a: 98.09

====

EXPERIMENT: Stability study of selected solid forms, HPLC purity after 7 days of storage
Assay type: physicochemical
CONDITION SUMMARY: 7 days, 25° C.
MEASURED PARAMETER: HPLC Purity (A %)
// units = A %; emit number, no label

MOLECULE	MEASURED PARAMETER	OUTPUT UNIT	EXPERIMENTAL VALUE
Cc1cccnc1-c1ccc(-c2n[nH]c3ncc(-c4ccc5c(c4)CC[C@@H](N4C6COCC4C6)CC5)cc23)nc1 [Freebase Form II]	HPLC Purity (A %)	A %	99.44
Cc1cccnc1-c1ccc(-c2n[nH]c3ncc(-c4ccc5c(c4)CC[C@@H](N4C6COCC4C6)CC5)cc23)nc1 [Succinate Form I]	HPLC Purity (A %)	A %	98.22
Cc1cccnc1-c1ccc(-c2n[nH]c3ncc(-c4ccc5c(c4)CC[C@@H](N4C6COCC4C6)CC5)cc23)nc1 [Fumarate Form I]	HPLC Purity (A %)	A %	97.94
Cc1cccnc1-c1ccc(-c2n[nH]c3ncc(-c4ccc5c(c4)CC[C@@H](N4C6COCC4C6)CC5)cc23)nc1 [2-Napsylate Form I]	HPLC Purity (A %)	A %	99.82

Please look at the following molecule next.
q: // returns reported HPLC Purity (A %) for input Cc1cccnc1-c1ccc(-c2n[nH]c3ncc(-c4ccc5c(c4)CC[C@@H](N4C6COCC4C6)CC5)cc23)nc1 [Camsylate Form I]
a: 99.68
